Values from patent US20250257064A1

# protocol-description: In vitro stability in human liver microsomes
# Type: in vitro ADME
# run-parameters: 1 μM
Think of 70% as a floor: if Human Residual content after 60 min (%) stands on it or above, it is YES; beneath it, NO.

Say whether CC1(C)CCC(CN2CCN(c3ccc(C(=O)NS(=O)(=O)c4ccc(NCC5CCOCC5)c([N+](=O)[O-])c4)c(Oc4cnc5[nH]ccc5c4)c3)CC2)=C(c2ccc(C(F)(F)F)c(F)c2)C1 shows Human Residual content after 60 min (%) of 70% or more.
NO

Say whether CC1(C)CCC(CN2CCN(c3ccc(C(=O)NS(=O)(=O)c4ccc(NC[C@H]5COCCO5)c([N+](=O)[O-])c4)c(Oc4cnc5[nH]ccc5c4)c3)CC2)=C(c2ccc(C(F)(F)F)cc2Cl)C1 shows Human Residual content after 60 min (%) of 70% or more.
YES

Say whether COCC(=O)N1CCO[C@H](CNc2ccc(S(=O)(=O)NC(=O)c3ccc(N4CCN(CC5=C(c6ccc(C(F)(F)F)cc6Cl)CC(C)(C)CC5)CC4)cc3Oc3cnc4[nH]ccc4c3)cc2[N+](=O)[O-])C1 shows Human Residual content after 60 min (%) of 70% or more.
NO

----------
Record form. Attribute: Human Residual content after 60 min (%). Fill in for each entry.
# protocol-description: In vitro stability in human liver microsomes
# Assay type: in vitro ADME
# run-parameters: 1 μM
Write it as a number; the unit % goes unstated.

Short answer for CC(C)C(=O)N1CCOC(CNc2ccc(S(=O)(=O)NC(=O)c3ccc(N4CCN(CC5=C(c6ccc(C(F)(F)F)cc6Cl)CC(C)(C)CC5)CC4)cc3Oc3cnc4[nH]ccc4c3)cc2[N+](=O)[O-])C1 (centres unmarked) : Human Residual content after 60 min (%) was 78.0

Short answer for CC1(C)CCC(CN2CCN(c3ccc(C(=O)NS(=O)(=O)c4ccc(NCC5CN(S(C)(=O)=O)CCO5)c([N+](=O)[O-])c4)c(Oc4cnc5[nH]ccc5c4)c3)CC2)=C(c2ccc(C(F)(F)F)cc2Cl)C1 (centres unmarked) : Human Residual content after 60 min (%) was 91.3

----------
# protocol-description: Pharmacokinetics in rats
# Format: in vivo
# run-parameters: Sprague-Dawley, rat, plasma, po; SD rats, IG 5 mg/kg
assay-metric: half-life (h)
Write it as a number; the unit h goes unstated.

Short answer for CC1(C)CCC(CN2CCN(c3ccc(C(=O)NS(=O)(=O)c4ccc(NCC5CCOCC5)c([N+](=O)[O-])c4)c(Oc4cnc5[nH]ccc5c4)c3)CC2)=C(c2ccc(C(F)(F)F)cc2Cl)C1 [Compound 1-1] : half-life was 8.73

Short answer for CC1(C)CCC(CN2CCN(c3ccc(C(=O)NS(=O)(=O)c4ccc(NC[C@H]5COCCO5)c([N+](=O)[O-])c4)c(Oc4cnc5[nH]ccc5c4)c3)CC2)=C(c2ccc(C(F)(F)F)cc2Cl)C1 [Compound 8-1] : half-life was 7.62

----------
# protocol-description: Pharmacokinetics in rats
# Assay type: in vivo
# run-parameters: Sprague-Dawley, rat, plasma, po; SD rats, IG 5 mg/kg
# Method: 4.1 Pharmacokinetics in Rats SD rats weighing 180-220 g were randomly grouped with 3 rats in each group after 3-5 days of adaptive feeding, and intragastrically administered with compounds 1-1 and 8-1 at a dosage of 5 mg/kg. […] Oral exposure of the compounds disclosed herein was evaluated by in vivo pharmacokinetic experiments in rats.
Record form. Attribute: Tmax. Fill in for each entry.
Write it as a number; the unit h goes unstated.

Short answer for CC1(C)CCC(CN2CCN(c3ccc(C(=O)NS(=O)(=O)c4ccc(NCC5CCOCC5)c([N+](=O)[O-])c4)c(Oc4cnc5[nH]ccc5c4)c3)CC2)=C(c2ccc(C(F)(F)F)cc2Cl)C1 [Compound 1-1] : Tmax was 4

Short answer for CC1(C)CCC(CN2CCN(c3ccc(C(=O)NS(=O)(=O)c4ccc(NC[C@H]5COCCO5)c([N+](=O)[O-])c4)c(Oc4cnc5[nH]ccc5c4)c3)CC2)=C(c2ccc(C(F)(F)F)cc2Cl)C1 [Compound 8-1] : Tmax was 4

----------
# target-or-system: BCL-2/BAK (Homo sapiens)
# protocol-description: Screening on inhibitory activity for BCL-2/BAK binding (Cisbio HTRF kit)
assay-metric: IC50 (nM)
Write it as a number; the unit nM goes unstated.

Short answer for CC1(C)CCC(CN2CCN(c3ccc(C(=O)NS(=O)(=O)c4ccc(NCCC5CN(S(C)(=O)=O)CCO5)c([N+](=O)[O-])c4)c(Oc4cnc5[nH]ccc5c4)c3)CC2)=C(c2ccc(C(F)(F)F)cc2Cl)C1 (stereo not shown) : IC50 was 2.4

Short answer for CC1(C)CCC(CN2CCN(c3ccc(C(=O)NS(=O)(=O)c4ccc(NCC5CCCN(S(C)(=O)=O)C5)c([N+](=O)[O-])c4)c(Oc4cnc5[nH]ccc5c4)c3)CC2)=C(c2ccc(C(F)(F)F)cc2Cl)C1 (stereo not shown) : IC50 was 3.83

Short answer for CCN1CCOCC1CNc1ccc(S(=O)(=O)NC(=O)c2ccc(N3CCN(CC4=C(c5ccc(C(F)(F)F)cc5Cl)CC(C)(C)CC4)CC3)cc2Oc2cnc3[nH]ccc3c2)cc1[N+](=O)[O-] (stereo not shown) : IC50 was 5.11

Short answer for CC1(C)CCC(CN2CCN(c3ccc(C(=O)NS(=O)(=O)c4ccc(NCC5CN(C(=O)CC#N)CCO5)c([N+](=O)[O-])c4)c(Oc4cnc5[nH]ccc5c4)c3)CC2)=C(c2ccc(C(F)(F)F)cc2Cl)C1 (stereo not shown) : IC50 was 1.9

----------
# target-or-system: BCL-2/BAK (Homo sapiens, UniProt P10415)
# Sequence (P10415 whole entry, species assumed): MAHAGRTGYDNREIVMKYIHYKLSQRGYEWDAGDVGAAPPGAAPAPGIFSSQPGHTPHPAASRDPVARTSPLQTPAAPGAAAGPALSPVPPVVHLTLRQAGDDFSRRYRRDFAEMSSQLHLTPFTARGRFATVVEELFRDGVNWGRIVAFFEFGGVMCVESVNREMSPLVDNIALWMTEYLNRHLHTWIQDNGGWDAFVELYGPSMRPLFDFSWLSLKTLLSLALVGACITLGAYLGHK
# protocol-description: Screening on inhibitory activity for BCL-2/BAK binding (Cisbio HTRF kit)
assay-metric: pIC50
By convention, pIC50 is the negative base-10 log of a molar concentration.

Short answer for CN(C)CC(=O)N1CCCC(CNc2ccc(S(=O)(=O)NC(=O)c3ccc(N4CCN(CC5=C(c6ccc(C(F)(F)F)cc6Cl)CC(C)(C)CC5)CC4)cc3Oc3cnc4[nH]ccc4c3)cc2[N+](=O)[O-])C1 (centres unmarked) : pIC50 was 8.96

Short answer for CCN1CCC(CCNc2ccc(S(=O)(=O)NC(=O)c3ccc(N4CCN(CC5=C(c6ccc(C(F)(F)F)cc6Cl)CC(C)(C)CC5)CC4)cc3Oc3cnc4[nH]ccc4c3)cc2[N+](=O)[O-])CC1 : pIC50 was 8.60

Short answer for CC1(C)CCC(CN2CCN(c3ccc(C(=O)NS(=O)(=O)c4ccc(NCC5CCOCC5)c([N+](=O)[O-])c4)c(Oc4cnc5[nH]ccc5c4)c3)CC2)=C(c2ccc(C(F)(F)F)c(F)c2)C1 : pIC50 was 8.24

Short answer for CC1(C)CCC(CN2CCN(c3ccc(C(=O)NS(=O)(=O)c4ccc(NCC5CCOCC5)c([N+](=O)[O-])c4)c(Oc4cnc5[nH]ccc5c4)c3)CC2)=C(c2ccc(C(F)(F)F)cc2Cl)C1 : pIC50 was 8.57

Short answer for CC1(C)CCC(CN2CCN(c3ccc(C(=O)NS(=O)(=O)c4ccc(NCC5CN(C(=O)C(F)(F)F)CCO5)c([N+](=O)[O-])c4)c(Oc4cnc5[nH]ccc5c4)c3)CC2)=C(c2ccc(C(F)(F)F)cc2Cl)C1 (centres unmarked) : pIC50 was 8.41

----------
Record form. Attribute: MRT last. Fill in for each entry.
# protocol-description: Pharmacokinetics in rats
# Assay type: in vivo
# run-parameters: Sprague-Dawley, rat, plasma, po; SD rats, IG 5 mg/kg; read-out: MRT(0-t)
Just the number plus its unit, please.

Short answer for CC1(C)CCC(CN2CCN(c3ccc(C(=O)NS(=O)(=O)c4ccc(NC[C@H]5COCCO5)c([N+](=O)[O-])c4)c(Oc4cnc5[nH]ccc5c4)c3)CC2)=C(c2ccc(C(F)(F)F)cc2Cl)C1 [Compound 8-1] : MRT last was 7.35 h

Short answer for CC1(C)CCC(CN2CCN(c3ccc(C(=O)NS(=O)(=O)c4ccc(NCC5CCOCC5)c([N+](=O)[O-])c4)c(Oc4cnc5[nH]ccc5c4)c3)CC2)=C(c2ccc(C(F)(F)F)cc2Cl)C1 [Compound 1-1] : MRT last was 8.95 h

----------
# protocol-description: In vitro stability in mouse liver microsomes
# Format: in vitro ADME
# run-parameters: 1 μM
assay-metric: Mouse Residual content after 60 min (%)
Just the number plus its unit, please.

Short answer for CC1(C)CCC(CN2CCN(c3ccc(C(=O)NS(=O)(=O)c4ccc(NCC5CCOCC5)c([N+](=O)[O-])c4)c(Oc4cnc5[nH]ccc5c4)c3)CC2)=C(c2ccc(C(F)(F)F)cc2Cl)C1 [Compound 1-1] : Mouse Residual content after 60 min (%) was 78.9%

Short answer for CC1(C)CCC(CN2CCN(c3ccc(C(=O)NS(=O)(=O)c4ccc(NC[C@H]5COCCO5)c([N+](=O)[O-])c4)c(Oc4cnc5[nH]ccc5c4)c3)CC2)=C(c2ccc(C(F)(F)F)cc2Cl)C1 [Compound 8-1] : Mouse Residual content after 60 min (%) was 73.9%

Short answer for CC1(C)CCC(CN2CCN(c3ccc(C(=O)NS(=O)(=O)c4ccc(NCC5CCOCC5)c([N+](=O)[O-])c4)c(Oc4cnc5[nH]ccc5c4)c3)CC2)=C(c2ccc(C(F)(F)F)c(F)c2)C1 [Compound 6-1] : Mouse Residual content after 60 min (%) was 65.3%

Short answer for CC1(C)CCC(CN2CCN(c3ccc(C(=O)NS(=O)(=O)c4ccc(NCC5CN(S(C)(=O)=O)CCO5)c([N+](=O)[O-])c4)c(Oc4cnc5[nH]ccc5c4)c3)CC2)=C(c2ccc(C(F)(F)F)cc2Cl)C1 (stereo not shown) [Compound 12-1] : Mouse Residual content after 60 min (%) was 93.4%

Short answer for CC(C)C(=O)N1CCOC(CNc2ccc(S(=O)(=O)NC(=O)c3ccc(N4CCN(CC5=C(c6ccc(C(F)(F)F)cc6Cl)CC(C)(C)CC5)CC4)cc3Oc3cnc4[nH]ccc4c3)cc2[N+](=O)[O-])C1 (stereo not shown) [Compound 10-1] : Mouse Residual content after 60 min (%) was 30.1%

Short answer for COCC(=O)N1CCO[C@H](CNc2ccc(S(=O)(=O)NC(=O)c3ccc(N4CCN(CC5=C(c6ccc(C(F)(F)F)cc6Cl)CC(C)(C)CC5)CC4)cc3Oc3cnc4[nH]ccc4c3)cc2[N+](=O)[O-])C1 [Compound 11-1] : Mouse Residual content after 60 min (%) was 62.9%

Short answer for CC(=O)N1CCOC(CNc2ccc(S(=O)(=O)NC(=O)c3ccc(N4CCN(CC5=C(c6ccc(C(F)(F)F)cc6Cl)CC(C)(C)CC5)CC4)cc3Oc3cnc4[nH]ccc4c3)cc2[N+](=O)[O-])C1 (stereo not shown) [Compound 9-1] : Mouse Residual content after 60 min (%) was 55.7%
